# assayedSystem: c-Kit (Homo sapiens, UniProt P10721)
# Construct: purchased Cell Signaling
# Sequence (P10721 26-976): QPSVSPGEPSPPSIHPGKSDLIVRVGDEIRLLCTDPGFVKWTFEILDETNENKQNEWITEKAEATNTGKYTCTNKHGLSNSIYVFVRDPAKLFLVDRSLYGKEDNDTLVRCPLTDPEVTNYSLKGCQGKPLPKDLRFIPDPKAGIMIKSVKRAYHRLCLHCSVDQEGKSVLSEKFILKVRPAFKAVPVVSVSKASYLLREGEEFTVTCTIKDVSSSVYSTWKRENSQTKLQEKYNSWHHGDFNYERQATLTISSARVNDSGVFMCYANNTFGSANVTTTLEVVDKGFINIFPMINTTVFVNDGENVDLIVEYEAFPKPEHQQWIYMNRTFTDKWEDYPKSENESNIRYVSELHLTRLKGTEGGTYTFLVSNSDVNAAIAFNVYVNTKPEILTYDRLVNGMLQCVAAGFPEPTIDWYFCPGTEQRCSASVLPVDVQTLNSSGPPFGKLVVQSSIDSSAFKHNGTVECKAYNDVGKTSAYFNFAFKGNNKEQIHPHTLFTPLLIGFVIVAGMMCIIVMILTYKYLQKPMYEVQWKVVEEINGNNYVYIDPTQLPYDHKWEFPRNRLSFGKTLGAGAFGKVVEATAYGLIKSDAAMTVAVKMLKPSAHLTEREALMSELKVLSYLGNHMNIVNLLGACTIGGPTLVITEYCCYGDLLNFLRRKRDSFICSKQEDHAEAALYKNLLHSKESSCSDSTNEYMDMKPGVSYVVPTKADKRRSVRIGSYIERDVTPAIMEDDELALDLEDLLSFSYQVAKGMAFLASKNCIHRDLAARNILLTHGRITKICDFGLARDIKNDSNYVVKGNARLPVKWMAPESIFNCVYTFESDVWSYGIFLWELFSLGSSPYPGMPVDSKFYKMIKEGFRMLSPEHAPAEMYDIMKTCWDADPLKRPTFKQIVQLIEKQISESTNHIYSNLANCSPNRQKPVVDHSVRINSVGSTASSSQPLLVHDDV
# assayOverview: c-KIT kinase ELISA bioassay
# Assay type: biochemical
# reportedConditions: ELISA kinase assay, 20 μM ATP
endpointLabel: IC50 (nM)

Answered examples (4):
Query block: Return reported IC50; argument: Cc1[nH]c(/C=C2\C(=O)Nc3ccc(F)cc32)c(C)c1C(=O)NCCCNc1ccc(C(=O)Nc2ccccc2N)cn1 [Example 6]
Result block: 76

Query block: Return reported IC50; argument: Cc1[nH]c(/C=C2\C(=O)Nc3ccc(F)cc32)c(C)c1C(=O)NCCNc1ccc(C(=O)Nc2ccc(F)cc2N)cn1 [Example 13]
Result block: 534

Query block: Return reported IC50; argument: Cc1[nH]c(/C=C2\C(=O)Nc3ccc(F)cc32)c(C)c1C(=O)NCCCCNc1ccc(C(=O)Nc2ccccc2N)cn1 [Example 9]
Result block: 23

Query block: Return reported IC50; argument: Cc1[nH]c(/C=C2\C(=O)Nc3ccc(F)cc32)c(C)c1C(=O)NCCNc1ccc(C(=O)Nc2ccccc2N)cn1 [Example 3]
Result block: 157

1 = Cc1[nH]c(/C=C2\C(=O)Nc3ccc(F)cc32)c(C)c1C(=O)NCCCCNc1ccc(C(=O)Nc2ccc(F)cc2N)cn1 [Example 19]
2 = Cc1[nH]c(/C=C2\C(=O)Nc3ccc(F)cc32)c(C)c1C(=O)NCCCNc1ccc(C(=O)Nc2ccc(F)cc2N)cn1 [Example 16]
Query block: Which shows the larger IC50 value: 1 or 2 ? Kindly state the label of the option you pick.
Result block: 2
(2: 242 nM, 1: 65 nM)

====

# assayedSystem: Flt3 (Homo sapiens, UniProt P36888)
# Construct: purchased Cell Signaling
# Sequence (P36888 27-993): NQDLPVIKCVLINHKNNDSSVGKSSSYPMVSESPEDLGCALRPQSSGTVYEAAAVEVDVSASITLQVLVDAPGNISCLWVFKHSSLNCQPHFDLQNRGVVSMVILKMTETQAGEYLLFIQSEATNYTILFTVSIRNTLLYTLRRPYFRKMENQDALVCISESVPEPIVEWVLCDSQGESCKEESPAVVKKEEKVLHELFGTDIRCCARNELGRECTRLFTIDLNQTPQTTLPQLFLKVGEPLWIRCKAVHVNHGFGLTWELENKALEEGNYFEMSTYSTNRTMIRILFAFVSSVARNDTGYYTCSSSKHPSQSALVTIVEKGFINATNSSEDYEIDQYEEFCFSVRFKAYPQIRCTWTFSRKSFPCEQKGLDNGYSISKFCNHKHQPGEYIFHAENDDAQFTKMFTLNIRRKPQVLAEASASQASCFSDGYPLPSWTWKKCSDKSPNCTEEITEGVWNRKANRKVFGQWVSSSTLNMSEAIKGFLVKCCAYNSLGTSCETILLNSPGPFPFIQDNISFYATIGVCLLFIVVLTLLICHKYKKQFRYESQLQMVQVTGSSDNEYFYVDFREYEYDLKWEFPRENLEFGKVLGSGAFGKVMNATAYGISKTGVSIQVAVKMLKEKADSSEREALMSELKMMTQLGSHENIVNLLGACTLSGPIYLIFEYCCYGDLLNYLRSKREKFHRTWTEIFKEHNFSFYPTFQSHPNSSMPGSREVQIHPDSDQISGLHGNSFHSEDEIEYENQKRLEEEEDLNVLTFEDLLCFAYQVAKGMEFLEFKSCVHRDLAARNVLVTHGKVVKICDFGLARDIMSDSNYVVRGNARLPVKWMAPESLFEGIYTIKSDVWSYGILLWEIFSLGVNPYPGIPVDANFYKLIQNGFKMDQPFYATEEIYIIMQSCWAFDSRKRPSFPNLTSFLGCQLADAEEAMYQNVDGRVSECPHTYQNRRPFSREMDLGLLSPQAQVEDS
# assayOverview: Flt3 kinase ELISA bioassay
# Format: biochemical
# reportedConditions: ELISA kinase assay, 200 μM ATP
endpointLabel: IC50 (nM)

Query block: Return reported IC50; argument: Cc1[nH]c(/C=N/N=C2\C(=O)Nc3ccc(F)cc32)c(C)c1C(=O)NCCNc1ccc(C(=O)Nc2ccc(F)cc2N)cn1
Result block: 432

Query block: Return reported IC50; argument: Cc1[nH]c(/C=N/N=C2\C(=O)Nc3ccc(F)cc32)c(C)c1C(=O)NCCCNc1ccc(C(=O)Nc2ccccc2N)cn1
Result block: 451

====

# assayedSystem: HDAC7 (Homo sapiens)
# Construct: endogenous in cells; host or cells: HeLa
# Sequence (Q8WUI4 whole entry): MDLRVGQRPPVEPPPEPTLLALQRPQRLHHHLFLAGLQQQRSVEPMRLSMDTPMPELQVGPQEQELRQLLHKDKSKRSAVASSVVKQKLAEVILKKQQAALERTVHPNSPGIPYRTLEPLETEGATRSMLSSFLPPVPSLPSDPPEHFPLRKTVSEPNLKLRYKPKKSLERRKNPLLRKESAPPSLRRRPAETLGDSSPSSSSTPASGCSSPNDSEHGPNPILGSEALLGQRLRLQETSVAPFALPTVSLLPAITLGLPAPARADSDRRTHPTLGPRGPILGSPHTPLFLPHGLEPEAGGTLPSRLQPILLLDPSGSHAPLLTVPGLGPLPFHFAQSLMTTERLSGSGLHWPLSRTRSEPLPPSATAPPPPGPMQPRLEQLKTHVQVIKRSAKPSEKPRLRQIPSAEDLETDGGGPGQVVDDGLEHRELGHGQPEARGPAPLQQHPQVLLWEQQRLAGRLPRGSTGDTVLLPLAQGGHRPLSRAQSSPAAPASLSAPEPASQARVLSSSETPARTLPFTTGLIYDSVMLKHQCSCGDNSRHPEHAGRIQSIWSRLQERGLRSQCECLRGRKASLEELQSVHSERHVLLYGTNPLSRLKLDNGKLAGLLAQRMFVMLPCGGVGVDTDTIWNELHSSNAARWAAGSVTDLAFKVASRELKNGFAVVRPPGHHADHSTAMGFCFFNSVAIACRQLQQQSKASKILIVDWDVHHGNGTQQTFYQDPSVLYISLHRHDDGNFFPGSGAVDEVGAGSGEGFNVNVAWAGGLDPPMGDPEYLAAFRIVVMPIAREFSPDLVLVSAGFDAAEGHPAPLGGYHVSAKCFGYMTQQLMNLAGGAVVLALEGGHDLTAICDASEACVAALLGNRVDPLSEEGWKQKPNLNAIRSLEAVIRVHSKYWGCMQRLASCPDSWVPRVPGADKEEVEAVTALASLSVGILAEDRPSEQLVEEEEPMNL
# assayOverview: Nur77 reporter assay in HeLa cells
# Assay type: cell-based
# reportedConditions: relative to CS055 at 3 μM
endpointLabel: HDAC7 (Nur77 reporter assay) % Max Resp of CS055 at 3 μM (%)

Answered examples (4):
Query block: Return reported HDAC7 (Nur77 reporter assay) % Max Resp of CS055 at 3 μM; argument: Cc1[nH]c(/C=N/N=C2\C(=O)Nc3ccc(F)cc32)c(C)c1C(=O)NCCNc1ccc(C(=O)Nc2ccccc2N)cn1 [Example 4]
Result block: 3.9

Query block: Return reported HDAC7 (Nur77 reporter assay) % Max Resp of CS055 at 3 μM; argument: Cc1[nH]c(/C=N/N=C2\C(=O)Nc3ccc(F)cc32)c(C)c1C(=O)NCCCCNc1ccc(C(=O)Nc2ccc(F)cc2N)cn1 [Example 20]
Result block: 1.0

Query block: Return reported HDAC7 (Nur77 reporter assay) % Max Resp of CS055 at 3 μM; argument: Cc1[nH]c(/C=C2\C(=O)Nc3ccc(F)cc32)c(C)c1C(=O)NCCCNc1ccc(C(=O)Nc2ccccc2N)cn1 [Example 6]
Result block: 88.1

Query block: Return reported HDAC7 (Nur77 reporter assay) % Max Resp of CS055 at 3 μM; argument: Cc1[nH]c(/C=N/N=C2\C(=O)Nc3ccc(F)cc32)c(C)c1C(=O)NCCCNc1ccc(C(=O)Nc2ccc(F)cc2N)cn1 [Example 17]
Result block: 3.5

P = Cc1[nH]c(/C=N/N=C2\C(=O)Nc3ccc(F)cc32)c(C)c1C(=O)NCCCCNc1ccc(C(=O)Nc2ccccc2N)cn1 [Example 10]
Q = Cc1[nH]c(/C=C2\C(=O)Nc3ccc(F)cc32)c(C)c1C(=O)NCCCCNc1ccc(C(=O)Nc2ccc(F)cc2N)cn1 [Example 19]
Query block: Which shows the larger HDAC7 (Nur77 reporter assay) % Max Resp of CS055 at 3 μM value: P or Q ? Kindly state the label of the option you pick.
Result block: P
